MEASURED ON: T1, human GIP receptor (human) (UniProt P48546)
T1 sequence (looked up): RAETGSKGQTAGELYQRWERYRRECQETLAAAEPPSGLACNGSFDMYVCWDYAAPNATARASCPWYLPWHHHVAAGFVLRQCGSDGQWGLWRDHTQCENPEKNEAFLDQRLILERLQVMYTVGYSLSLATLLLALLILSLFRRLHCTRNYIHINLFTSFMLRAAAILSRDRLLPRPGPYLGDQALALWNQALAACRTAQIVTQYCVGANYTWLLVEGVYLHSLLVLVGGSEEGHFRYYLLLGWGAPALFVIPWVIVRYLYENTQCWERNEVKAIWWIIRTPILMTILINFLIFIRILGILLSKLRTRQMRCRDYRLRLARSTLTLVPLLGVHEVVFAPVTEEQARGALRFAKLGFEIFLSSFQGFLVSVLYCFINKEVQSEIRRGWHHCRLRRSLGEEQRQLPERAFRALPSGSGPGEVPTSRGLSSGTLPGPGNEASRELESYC
MEASUREMENT DESCRIPTION: cell-based or functional assay
MEASURED QUANTITY: cAMP Rel EC50, nM (1% HSA) (nM)

{"BINDER": "YXQGTXTSDYSILLDKKAQXNFIEYLEEGGPSSGAPPPS (synthetic construct; SITE 2: note = 2-Aminoisobutyric Acid; SITE 6: note = alpha-methyl-2-fluoro-L-phenylalanine; SITE 17: note = Lysine is chemically modified through conjugation of the epsilon-amino group of the Lysine side chain with (gamma-Glu)2-CO-(CH2)16-CO2H; SITE 20: note = 2-Aminoisobutyric) [Example 416]", "ENDPOINT VALUE": 27.6}
{"BINDER": "YXQGTFTSDXSXXLDKKAQXAFIEXLIEGGPSSGAPPPSGSEE (Aib, 4Pal, Me4Pal, Orn, alpha-methyl-Leu, lipidated Lys, amide; synthetic construct; SITE 2: note = 2-Aminoisobutyric Acid; SITE 10: note = 3-(4-Pyridyl)-L-alanine; SITE 12: note = L-ornithine; SITE 13: note = alpha-methyl-leucine; SITE 17: note = Lysine is chemically modified through conjugation of the epsilon-amino group of the Lysine side chain with (2-[2-(2-) [Example 955]", "ENDPOINT VALUE": 42.3}
{"BINDER": "YXQGTFTSDYSXXLDKKAQXAFIEYLLEGGESSGAPPPSGS (synthetic construct; SITE 2: note = 2-Aminoisobutyric Acid; SITE 12: note = L-ornithine; SITE 13: note = alpha-methyl-leucine; SITE 17: note = Lysine is chemically modified through conjugation of the epsilon-amino group of the Lysine side chain with (2-[2-(2-Amino-ethoxy)-ethoxy]-acetyl)-(gamma-Glu)) [Example 359]", "ENDPOINT VALUE": 103}
